Values compiled from ChEMBL document CHEMBL1201862.

What AC50 was measured for each of the following?
# test.description: HIV-1 AD8 envelope cell-cell fusion blockers – cherry-pick, dose response (AID 652062);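 note: luciferase signal from cell-cell fusion driven by HIV-1 clade B AD8 Env; potency is for inhibitors of fusion seen as a drop in luminescence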
# Format: functional, cell-based
Calls of active or inactive are those of the source. The rule behind the calls is not given here.

Prompt: In one line, give reported AC50 of the entry `CCCCCCCCN1C(=O)[C@H](CC(=O)NCCCC)C[C@@]2(C(=O)OCC)CCCC=C12` .
Completion: 16.3 µM (active)

Prompt: Given COc1cccc(CN2CCC2(C)C(=O)Nc2cccc(Oc3ccccc3)c2)c1OC (centres undefined) , respond with its AC50.
Completion: 20.4 µM (active)

Prompt: Query AC50 for CCCCCCCCCCCCCCCC(=O)OCC1OC(n2ccc(N)nc2=O)C(O)C1O (centres undefined)
Completion: 0.922 µM (active)

Prompt: Output AC50 of `CCN1C(=O)[C@H]2[C@@H](c3ccc(C(F)(F)F)cc3)N[C@]3(CCCN(Cc4ccccc4)C3=O)[C@H]2C1=O`
Completion: 0.682 µM (active)
